Tested on: NCI-H23 lung
Assay: NCI tumour cell line growth inhibition, 48 h
Where a SMILES comes first, the peptide text is derived from it. Bridges are numbered along the chain shown (N, C = ends). [ ]: non-standard residue; d: D form. The star is where a group is joined. ξ: configuration not given here. X26 = O=C(/C=C/C=C/C=C/C=C/C=C/C(=O)*)NC1=C(O)CCC1=O; Pro(4R-Me) = C[C@H]1CN[C@H](C(=O)O)C1; NMeA = CN[C@@H](C)C(=O)O; ξF = NC(Cc1ccccc1)C(=O)O; ξA = CC(N)C(=O)O
Entries annotated with measured TGI
property: TGI

Clc1ccc(COc2ccccc2/C=N/c2c(-c3ccco3)nc3ccccn23)c(Cl)c1 :: > 100 µM
CC1NC(=O)[C@H](C)N(C)C(=O)[C@@H]2CCCN2C(=O)[C@@H](NC(=O)C(Cc2ccccc2)NC(=O)/C=C/C=C/C=C/C=C/C=C/C(=O)NC2=C(O)CCC2=O)COC(=O)[C@@H]2C[C@@H](C)CN2C1=O (stereo partly drawn) (X26-[ξF]SP[NMeA][ξA][Pro(4R-Me)]; ester 2-C) :: > 100 µM
COC(c1ccccc1)C(c1ccccc1)N1CCOCC1 (stereo unspecified) :: > 100 µM
CCOC(=O)C1=c2[nH]c3cccc4cccc(c43)n2C(=O)CC1 :: > 100 µM
COc1cc(/C=C/C(=O)c2ccc(Nc3nc(NCCO)nc(N4CCOCC4)n3)cc2)cc(OC)c1OC :: 5.17 µM
COc1ccc(/C=C2/SC(c3ccc(Cl)cc3)N(NC(=O)CCCCCCCCC(=O)NN3C(=O)/C(=C\c4ccc(OC)c(OC)c4)SC3c3ccc(Cl)cc3)C2=O)cc1OC (stereo unspecified) :: 47.1 µM
COc1cc2c(/C=C3/C(=O)Nc4c3ccc3ccccc43)c(Cl)n(C)c2cc1C :: 14.7 µM
O=C(CC(=O)n1nc(-c2ccccc2)c(N=Nc2ccccc2Cl)c1-c1ccccc1)Nc1ccc(Cl)cc1 :: > 100 µM
NC(N)=NN=C(c1ccccc1)c1ccccc1 :: > 100 µM
COC1=CC(=O)N(C(=O)C2CSC(C(CO)NC(=O)c3csc(/C=N/O)n3)=N2)C1 (stereo unspecified) :: > 100 µM
Cn1c(=O)c2c(nc3n(Cc4ccccc4)c(=O)c(Br)cn23)n(C)c1=O :: > 100 µM
CCOc1cc(F)c([N+](=O)[O-])cc1[N+](=O)[O-] :: 5.56 µM
c1cc[n+](C2c3ccccc3C([n+]3ccccc3)c3ccccc32)cc1 (stereo unspecified) :: > 52.4 µM
O=C(O)c1ccc(C(=O)Nc2cccc3ccccc23)c(C(=O)O)c1 :: > 100 µM
O=C1/C(=C\c2cccc(Oc3ccccc3)c2)SC(c2ccccc2)N1c1ccccc1Cl (stereo unspecified) :: 69.7 µM
COc1cc2c(c(O)c1OC)C(=O)C1CCC(=O)N1C2c1cccc2ccccc12 (stereo unspecified) :: > 100 µM

* * *

System: HL-60(TB) leukemia
Experiment: NCI tumour cell line growth inhibition, 48 h
Entries annotated with measured TGI
property: TGI

CC1CC/C(=C\c2ccc(F)cc2)C2=C1C(c1ccc(F)cc1)n1c(s/c(=C/c3cccc(Br)c3)c1=O)=N2 (stereo unspecified) :: > 100 µM
COc1cc(C(c2c(O)c3ccccc3oc2=O)c2c(O)c3ccccc3oc2=O)ccc1O :: 57.9 µM
O=C(CC(=O)n1nc(-c2ccccc2)c(N=Nc2ccccc2Cl)c1-c1ccccc1)Nc1ccc(Cl)cc1 :: > 60.5 µM
CC1CCC2C(C)(C)CC3(C)CCC1C23O (stereo unspecified) :: 5.57 µM
Nc1n[nH]c2cccc(C#Cc3cccc(NC(=O)c4ccc(N5CCOCC5)c(C(F)(F)F)c4)c3)c12 :: 10.5 µM
Cc1cc(Cl)nc(Nc2nc3ccccc3[nH]2)n1 :: > 100 µM
